FYI, the data here is from patent US20250074901A1.

Field: EC50. Provide a value for each of the compounds that follow.
Target: Kv7.2 (Homo sapiens)
Construct: expressed in transfected cells
Assay: Activation of Kv7.2 (in vitro assay, concentration response curve)
Assay type: cell-based
Conditions: activation of Kv7.2
One number for each entry, in nM.

Sample answers from the record:
> print(dat)
                                   compound  measurement.label  readout.unit  numeric.value
1  O=C(NCc1ccnc(OC(F)F)c1)N[C@@H]1[C@H]2CCC(F)(F)[C@H]21 [Example 170]               EC50            nM             80
2  O=C(NCc1ccnc(OC(F)F)c1)NC1CC(OC(F)(F)F)C1 (stereo not drawn)               EC50            nM            290
3       COC1(CNC(=O)NCc2ccnc(OC(F)F)c2)CCC1               EC50            nM           3730
4  O=C(NCc1ccnc(OCC(F)(F)F)c1)NCC12CC(F)(C1)C2               EC50            nM            600
5  O=C(NCc1ccnc(OCC(F)(F)F)c1)NCC(O)C12CC(C1)C2 (stereo not drawn)               EC50            nM            620

Batch: EC50 for all items listed.
1. O=C(NCc1ccnc(OC(F)F)c1)N[C@H]1[C@@H]2CCC(F)(F)[C@@H]21
2. CC(F)COc1cc(CNC(=O)NC23CCC(F)(CC2)CC3)ccn1 (stereo not drawn)
3. O=C(NCc1ccnc(OC(F)F)c1)NC12CC(C1)C2
4. O=C(NCc1ccnc(OC(F)F)c1)NC1(C23CC(F)(C2)C3)CC1

Response:
1: 200; 2: 440; 3: 1510; 4: 1400
